Data origin: patent US20040229298A1

molecular target: GST-SIP1 PDZ domain 1 (human); assay: G assay ELISA, E6 PL peptide titrated on constant GST-PDZ
pEC50: −log10 of the molar value. Ends that are not written are not given here.

BINDER	pEC50
WTGRCMSCCRSSRTRRETQL (not fully specified; cysteine pairing not given here) [HPV16 E6 C-terminal PDZ ligand peptide (20 mer, biotinylated), P03126 139-158]	5.12
